system: RD; assay: relative viability vs DMSO control (72 h) (fraction); higher = more viable cells; conditions: 0.00017 µM

{"columns": ["line notation", "relative viability"],
 "data": [
  ["CNC(=O)c1ccc(-c2cnc3ncc(Cc4ccc5ncccc5c4)n3n2)cc1F", 1.11],
  ["CC(=O)Nc1cccc(-n2c(=O)n(C3CC3)c(=O)c3c(Nc4ccc(I)cc4F)n(C)c(=O)c(C)c32)c1", 1.08],
  ["Cn1cnc2c(F)c(Nc3ccc(Br)cc3F)c(C(=O)NOCCO)cc21", 1.01],
  ["Cc1nc(NC(=O)N2CCC[C@H]2C(N)=O)sc1-c1ccnc(C(C)(C)C(F)(F)F)c1", 1.04],
  ["N#CC[C@H](C1CCCC1)n1cc(-c2ncnc3[nH]ccc23)cn1", 0.965],
  ["CCCS(=O)(=O)Nc1ccc(F)c(C(=O)c2c[nH]c3ncc(-c4ccc(Cl)cc4)cc23)c1F", 1.14],
  ["C[C@@H]1COCCN1c1cc(-c2ccnn2C)c2ccnc(-c3ccn[nH]3)c2n1", 1.08],
  ["C[C@@H]1CCN(C(=O)CC#N)C[C@@H]1N(C)c1ncnc2[nH]ccc12", 1.05],
  ["Cc1cc(Nc2ncnc3ccc(NC4=NC(C)(C)CO4)cc23)ccc1Oc1ccn2ncnc2c1", 1.08],
  ["CNC(=O)c1cc(Oc2ccc(NC(=O)Nc3ccc(Cl)c(C(F)(F)F)c3)c(F)c2)ccn1", 1.06],
  ["C[C@@H](c1ccc2nccn2c1)n1nnc2ncc(-c3cnn(C)c3)nc21", 1.11],
  ["COCc1c(-c2cc3cc(C)cc(OC)c3s2)c2c(N)ncnn2c1CN1CCNC(=O)C1", 1.03],
  ["COc1cc2/c(=N/c3ccc(Br)cc3F)nc[nH]c2cc1OCC1CCN(C)CC1", 1.1]
]}

###

Examples of molecules with documented relative viability follow.
tested on: SK-ES-1; assay: relative viability vs DMSO control (72 h) (fraction); higher = more viable cells; conditions: 1.111 µM
endpoint: relative viability

{"columns": ["line notation", "data value"],
 "data": [
  ["Cc1nc(NC(=O)N2CCC[C@H]2C(N)=O)sc1-c1ccnc(C(C)(C)C(F)(F)F)c1", 0.558],
  ["CN1CCC(COc2cnc(-c3cccc(Cn4nc(-c5cccc(C#N)c5)ccc4=O)c3)nc2)CC1", 0.974],
  ["Cc1cc(Nc2ncnc3ccc(NC4=NC(C)(C)CO4)cc23)ccc1Oc1ccn2ncnc2c1", 1.01]
]}

###

test system: SW872; test: relative viability vs DMSO control (72 h) (fraction); higher = more viable cells; details: 0.00051 µM
Structures can show the parent of a compound that is named as a salt.

{"columns": ["molecule", "relative viability"],
 "data": [
  ["Cc1cnc(Nc2ccc(OCCN3CCCC3)cc2)nc1Nc1cccc(S(=O)(=O)NC(C)(C)C)c1 [Fedratinib]", 1.06],
  ["Cc1nc(NC(=O)N2CCC[C@H]2C(N)=O)sc1-c1ccnc(C(C)(C)C(F)(F)F)c1 [Alpelisib]", 1.04],
  ["CN1CCN(c2ccc3nc(-c4c(N)c5c(F)cccc5[nH]c4=O)[nH]c3c2)CC1 [Dovitinib]", 1.04],
  ["CC[C@H](Nc1ncnc2[nH]cnc12)c1nc2cccc(F)c2c(=O)n1-c1ccccc1 [Idelalisib]", 1.13],
  ["COc1cccc2c1C(=O)c1c(O)c3c(c(O)c1C2=O)C[C@@](O)(C(=O)CO)C[C@@H]3O[C@H]1C[C@H](N)[C@H](O)[C@H](C)O1 [Doxorubicin Hydrochloride]", 1.05],
  ["N#CC[C@H](C1CCCC1)n1cc(-c2ncnc3[nH]ccc23)cn1 [Ruxolitinib]", 1.05],
  ["CNC(=O)c1ccc(-c2cnc3ncc(Cc4ccc5ncccc5c4)n3n2)cc1F [Capmatinib]", 1.03],
  ["CC(C)NC(=O)C1CCC(n2c(NC(=O)c3ccc(F)cc3)nc3ccc(CN4CCC(C(C)(C)O)CC4)cc32)CC1 (stereo not drawn) [Belizatinib]", 1.07]
]}

###

system: KHOS-NP; test: relative viability vs DMSO control (72 h) (fraction); higher = more viable cells; conditions: 3.333 µM

{"columns": ["compound", "relative viability"],
 "data": [
  ["COc1c(OCCCN2CCOCC2)ccc2c1N=C(NC(=O)c1cnc(N)nc1)N1CCN=C21", 0.198],
  ["O=C(Nc1cnn2ccc(N3CCC[C@@H]3c3cc(F)ccc3F)nc12)N1CC[C@H](O)C1", 1.02],
  ["Cc1cc(C)c(/C=C2\\C(=O)Nc3ccccc32)[nH]1", 1],
  ["Cn1cnc2c(F)c(Nc3ccc(Br)cc3F)c(C(=O)NOCCO)cc21", 0.291],
  ["CN1CCC(COc2cnc(-c3cccc(Cn4nc(-c5cccc(C#N)c5)ccc4=O)c3)nc2)CC1", 0.995],
  ["C[C@@H]1CCN(C(=O)CC#N)C[C@@H]1N(C)c1ncnc2[nH]ccc12", 1.02],
  ["CC(C)NC(=O)C1CCC(n2c(NC(=O)c3ccc(F)cc3)nc3ccc(CN4CCC(C(C)(C)O)CC4)cc32)CC1 (stereo not given)", 0.996],
  ["Cc1nc(-c2cn3c(n2)-c2ccc(-c4cnn(C(C)(C)C(N)=O)c4)cc2OCC3)n(C(C)C)n1", 0.948],
  ["N#CC[C@H](C1CCCC1)n1cc(-c2ncnc3[nH]ccc23)cn1", 0.982],
  ["CCN1CCN(Cc2ccc(Nc3ncc(F)c(-c4cc(F)c5nc(C)n(C(C)C)c5c4)n3)nc2)CC1", 0.753],
  ["CCc1cc2c(cc1N1CCC(N3CCOCC3)CC1)C(C)(C)c1[nH]c3cc(C#N)ccc3c1C2=O", 1.05],
  ["CNC(=O)c1cc(Oc2ccc(NC(=O)Nc3ccc(Cl)c(C(F)(F)F)c3)c(F)c2)ccn1", 0.569],
  ["C[C@@H](c1ccc2nccn2c1)n1nnc2ncc(-c3cnn(C)c3)nc21", 1.02],
  ["COc1cc2nccc(Oc3ccc(NC(=O)Nc4cc(C)on4)c(Cl)c3)c2cc1OC", 1.03],
  ["CC[C@H](Nc1ncnc2[nH]cnc12)c1nc2cccc(F)c2c(=O)n1-c1ccccc1", 1.06]
]}

###

tested on: SW1353; assay: relative viability vs DMSO control (72 h) (fraction); higher = more viable cells; conditions: 1.111 µM
Counter-ions that a name gives are not always drawn.
Entries whose relative viability is below 0.8 take condition met; entries at or above 0.8 take condition not met.

{"columns": ["compound", "assayed system", "label"],
 "data": [
  ["C[C@@H]1COCCN1c1cc(-c2ccnn2C)c2ccnc(-c3ccn[nH]3)c2n1", "SW1353", "condition met"],
  ["Cc1nc(-c2cn3c(n2)-c2ccc(-c4cnn(C(C)(C)C(N)=O)c4)cc2OCC3)n(C(C)C)n1", "SW1353", "condition met"],
  ["C[C@]1(O)C[C@@H](c2nc(-c3ccc4ccc(-c5ccccc5)nc4c3)c3c(N)nccn32)C1", "SW1353", "condition not met"],
  ["CC(C)N1CCN(Cc2cnc(-c3cc(-c4cccc5[nH]ccc45)cc4[nH]ncc34)o2)CC1", "SW1353", "condition not met"],
  ["Cc1cc(Nc2ncnc3ccc(NC4=NC(C)(C)CO4)cc23)ccc1Oc1ccn2ncnc2c1", "SW1353", "condition not met"],
  ["CO[C@H]1C[C@@H]2CC[C@@H](C)[C@@](O)(O2)C(=O)C(=O)N2CCCC[C@H]2C(=O)O[C@H]([C@H](C)C[C@@H]2CC[C@@H](OP(C)(C)=O)[C@H](OC)C2)CC(=O)[C@H](C)/C=C(\\C)[C@@H](O)[C@@H](OC)C(=O)[C@H](C)C[C@H](C)/C=C/C=C/C=C/1C", "SW1353", "condition met"],
  ["COc1cccc2c1C(=O)c1c(O)c3c(c(O)c1C2=O)C[C@@](O)(C(=O)CO)C[C@@H]3O[C@H]1C[C@H](N)[C@H](O)[C@H](C)O1 [Doxorubicin Hydrochloride]", "SW1353", "condition met"],
  ["CCN1CCN(Cc2ccc(Nc3ncc(F)c(-c4cc(F)c5nc(C)n(C(C)C)c5c4)n3)nc2)CC1", "SW1353", "condition met"],
  ["C=CC(=O)N1CCC[C@@H](n2nc(-c3ccc(Oc4ccccc4)cc3)c3c(N)ncnc32)C1", "SW1353", "condition met"],
  ["COc1cc2nccc(Oc3ccc(NC(=O)Nc4cc(C)on4)c(Cl)c3)c2cc1OC", "SW1353", "condition not met"],
  ["N#CC[C@H](C1CCCC1)n1cc(-c2ncnc3[nH]ccc23)cn1", "SW1353", "condition not met"],
  ["CCc1cc2c(cc1N1CCC(N3CCOCC3)CC1)C(C)(C)c1[nH]c3cc(C#N)ccc3c1C2=O", "SW1353", "condition not met"],
  ["COc1cc2/c(=N/c3ccc(Br)cc3F)nc[nH]c2cc1OCC1CCN(C)CC1", "SW1353", "condition not met"]
]}
